# credit: ChEMBL document CHEMBL4421721

Assay: Inhibition of full-length native sheep brain dynamin 1 assessed as reduction in PS liposomes-induced GTPase activity
Design: species or system Ovis aries
property measured: pIC50
Formally, pIC50 is defined as -log10 of the concentration c, with c in mol/L.

The reported value for O=C(N/N=C/c1cc(O)c(O)cc1O)c1cc2ccccc2cc1O in terms of pIC50 is 6.52

----------
Test: Inhibition of full-length native sheep brain dynamin 1 assessed as reduction in PS liposomes-induced GTPase activity in presence of tween-80 using 7 nM full-length dynamin 1
Design: species or system Ovis aries
Conditions: read-out: IC50
property measured: pIC50
Formally, pIC50 is defined as -log10 of the concentration c, with c in mol/L.

The reported value for O=C(N/N=C/c1cc(O)c(O)c(O)c1)c1cc2ccccc2cc1O in terms of pIC50 is 3.33

The reported value for O=C(N/N=C/c1cc(O)c(O)cc1O)c1cc2ccccc2cc1O in terms of pIC50 is 5.57

The reported value for O=C(N/N=C/c1cccc(O)c1O)c1cc2ccccc2cc1O in terms of pIC50 is 4.70

The reported value for O=C(N/N=C/c1ccc(O)cc1O)c1cc2ccccc2cc1O in terms of pIC50 is 3.70

The reported value for COc1cc(/C=N/NC(=O)c2cc3ccccc3cc2O)c(O)cc1O in terms of pIC50 is 2.93
